The reported measurements were obtained from ChEMBL document CHEMBL4725393.

# Test Summary: AUC in beagle dog at 40 mg, po measured up to 24 hrs
# Type: ADME, organism-based, Canis lupus familiaris
# Design: route oral, dose 40 mg, time <=24
# Details: in vivo
compounds and their reported AUC at 24 h
Measured Metric: AUC at 24 h (ng·h/mL)

# Compound, Measured Metric, Value Reported
data = [
    ("COC(=O)N[C@H](C(=O)N1CCC[C@H]1c1nc2cc([C@H]3CC[C@H](c4cc5nc([C@@H]6CCCN6C(=O)[C@@H](NC(=O)OC)[C@@H](C)OC)[nH]c5cc4F)N3c3cc(F)c(N4CCC(c5ccc(F)cc5)CC4)c(F)c3)c(F)cc2[nH]1)[C@@H](C)OC [PIBRENTASVIR]", "AUC at 24 h", 3860),
    ("COC(=O)N[C@H](C(=O)N1CCC[C@H]1c1nc2cc(F)c([C@H]3CC[C@H](c4cc5nc([C@@H]6CCCN6C(=O)[C@@H](NC(=O)OC)[C@@H](C)OC)n(COC(=O)[C@@H](N)C(C)C)c5cc4F)N3c3cc(F)c(N4CCC(c5ccc(F)cc5)CC4)c(F)c3)cc2[nH]1)[C@@H](C)OC", "AUC at 24 h", 568),
    ("COC(=O)N[C@H](C(=O)N1CCC[C@H]1c1nc2cc(F)c([C@H]3CC[C@H](c4cc5c(cc4F)nc([C@@H]4CCCN4C(=O)[C@@H](NC(=O)OC)[C@@H](C)OC)n5COP(=O)(O)O)N3c3cc(F)c(N4CCC(c5ccc(F)cc5)CC4)c(F)c3)cc2[nH]1)[C@@H](C)OC", "AUC at 24 h", 93),
]

* * *

# Test Summary: Cmax in CD1 mouse at 3 mg/kg, po measured up to 24 hrs
# Type: ADME, organism-based
# Parameters: route oral, dose 3 mg/kg, time <=24
# Details: in vivo

# Compound, Cmax, ng/mL
measured = [
    ("COC(=O)N[C@H](C(=O)N1CCC[C@H]1c1nc2cc([C@H]3CC[C@H](c4cc5nc([C@@H]6CCCN6C(=O)[C@@H](NC(=O)OC)[C@@H](C)OC)[nH]c5cc4F)N3c3cc(F)c(N4CCC(c5ccc(F)cc5)CC4)c(F)c3)c(F)cc2[nH]1)[C@@H](C)OC [PIBRENTASVIR]", 280),
    ("COC(=O)N[C@H](C(=O)N1CCC[C@H]1c1nc2cc(F)c([C@H]3CC[C@H](c4cc5c(cc4F)nc([C@@H]4CCCN4C(=O)[C@@H](NC(=O)OC)[C@@H](C)OC)n5COP(=O)(O)O)N3c3cc(F)c(N4CCC(c5ccc(F)cc5)CC4)c(F)c3)cc2[nH]1)[C@@H](C)OC", 2.2),
]

* * *

molecules and their reported Stabilty
# Test Summary: Stability of compound at pH 1 assessed as prodrug remaining level at 125 ug/ml incubated for 24 hrs by HPLC analysis
# Type: physicochemical
# Details: buffer, pH 1, 24 h, at 125 µg/mL

# Sample Smiles, Stabilty (%)
data = [
    ("COC(=O)N[C@H](C(=O)N1CCC[C@H]1c1nc2cc(F)c([C@H]3CC[C@H](c4cc5nc([C@@H]6CCCN6C(=O)[C@@H](NC(=O)OC)[C@@H](C)OC)n(COC(=O)Cc6ccccc6OP(=O)(O)O)c5cc4F)N3c3cc(F)c(N4CCC(c5ccc(F)cc5)CC4)c(F)c3)cc2[nH]1)[C@@H](C)OC", 15),
    ("COC(=O)N[C@H](C(=O)N1CCC[C@H]1c1nc2cc(F)c([C@H]3CC[C@H](c4cc5nc([C@@H]6CCCN6C(=O)[C@@H](NC(=O)OC)[C@@H](C)OC)n(C(=O)OCCCOP(=O)(O)O)c5cc4F)N3c3cc(F)c(N4CCC(c5ccc(F)cc5)CC4)c(F)c3)cc2[nH]1)[C@@H](C)OC", 54),
    ("COC(=O)N[C@H](C(=O)N1CCC[C@H]1c1nc2cc(F)c([C@H]3CC[C@H](c4cc5nc([C@@H]6CCCN6C(=O)[C@@H](NC(=O)OC)[C@@H](C)OC)n(COC(=O)[C@@H](NC(=O)COP(=O)(O)O)C(C)C)c5cc4F)N3c3cc(F)c(N4CCC(c5ccc(F)cc5)CC4)c(F)c3)cc2[nH]1)[C@@H](C)OC", 97),
    ("COC(=O)N[C@H](C(=O)N1CCC[C@H]1c1nc2cc(F)c([C@H]3CC[C@H](c4cc5nc([C@@H]6CCCN6C(=O)[C@@H](NC(=O)OC)[C@@H](C)OC)n(COC(=O)[C@@H](NC(=O)/C=C/C(=O)O)C(C)C)c5cc4F)N3c3cc(F)c(N4CCC(c5ccc(F)cc5)CC4)c(F)c3)cc2[nH]1)[C@@H](C)OC", 97),
    ("COC(=O)N[C@H](C(=O)N1CCC[C@H]1c1nc2cc(F)c([C@H]3CC[C@H](c4cc5c(cc4F)nc([C@@H]4CCCN4C(=O)[C@@H](NC(=O)OC)[C@@H](C)OC)n5COC(=O)N(C)c4ncccc4COP(=O)(O)O)N3c3cc(F)c(N4CCC(c5ccc(F)cc5)CC4)c(F)c3)cc2[nH]1)[C@@H](C)OC", 92),
    ("COC(=O)N[C@H](C(=O)N1CCC[C@H]1c1nc2cc(F)c([C@H]3CC[C@H](c4cc5nc([C@@H]6CCCN6C(=O)[C@@H](NC(=O)OC)[C@@H](C)OC)n(COP(=O)(O)O)c5cc4F)N3c3cc(F)c(N4CCC(c5ccc(F)cc5)CC4)c(F)c3)cc2[nH]1)[C@@H](C)OC", 100),
    ("COC(=O)N[C@H](C(=O)N1CCC[C@H]1c1nc2cc(F)c([C@H]3CC[C@H](c4cc5nc([C@@H]6CCCN6C(=O)[C@@H](NC(=O)OC)[C@@H](C)OC)n(COC(=O)CCCOP(=O)(O)O)c5cc4F)N3c3cc(F)c(N4CCC(c5ccc(F)cc5)CC4)c(F)c3)cc2[nH]1)[C@@H](C)OC", 82),
    ("COC(=O)N[C@H](C(=O)N1CCC[C@H]1c1nc2cc(F)c([C@H]3CC[C@H](c4cc5nc([C@@H]6CCCN6C(=O)[C@@H](NC(=O)OC)[C@@H](C)OC)n(COC(=O)[C@@H](N)C(C)C)c5cc4F)N3c3cc(F)c(N4CCC(c5ccc(F)cc5)CC4)c(F)c3)cc2[nH]1)[C@@H](C)OC", 78),
    ("COC(=O)N[C@H](C(=O)N1CCC[C@H]1c1nc2cc(F)c([C@H]3CC[C@H](c4cc5c(cc4F)nc([C@@H]4CCCN4C(=O)[C@@H](NC(=O)OC)[C@@H](C)OC)n5COC(=O)[C@@H](NC(=O)OCOP(=O)(O)O)C(C)C)N3c3cc(F)c(N4CCC(c5ccc(F)cc5)CC4)c(F)c3)cc2[nH]1)[C@@H](C)OC", 95),
    ("COC(=O)N[C@H](C(=O)N1CCC[C@H]1c1nc2cc(F)c([C@H]3CC[C@H](c4cc5c(cc4F)nc([C@@H]4CCCN4C(=O)[C@@H](NC(=O)OC)[C@@H](C)OC)n5COP(=O)(O)O)N3c3cc(F)c(N4CCC(c5ccc(F)cc5)CC4)c(F)c3)cc2[nH]1)[C@@H](C)OC", 100),
    ("COC(=O)N[C@H](C(=O)N1CCC[C@H]1c1nc2cc(F)c([C@H]3CC[C@H](c4cc5c(cc4F)nc([C@@H]4CCCN4C(=O)[C@@H](NC(=O)OC)[C@@H](C)OC)n5COC(=O)c4cccc(OP(=O)(O)O)c4)N3c3cc(F)c(N4CCC(c5ccc(F)cc5)CC4)c(F)c3)cc2[nH]1)[C@@H](C)OC", 91),
    ("COC(=O)N[C@H](C(=O)N1CCC[C@H]1c1nc2cc(F)c([C@H]3CC[C@H](c4cc5nc([C@@H]6CCCN6C(=O)[C@@H](NC(=O)OC)[C@@H](C)OC)n(COC(=O)c6ccccc6COP(=O)(O)O)c5cc4F)N3c3cc(F)c(N4CCC(c5ccc(F)cc5)CC4)c(F)c3)cc2[nH]1)[C@@H](C)OC", 99),
    ("COC(=O)N[C@H](C(=O)N1CCC[C@H]1c1nc2cc(F)c([C@H]3CC[C@H](c4cc5nc([C@@H]6CCCN6C(=O)[C@@H](NC(=O)OC)[C@@H](C)OC)n(COC(=O)c6cccc(OP(=O)(O)O)c6)c5cc4F)N3c3cc(F)c(N4CCC(c5ccc(F)cc5)CC4)c(F)c3)cc2[nH]1)[C@@H](C)OC", 96),
    ("COC(=O)N[C@H](C(=O)N1CCC[C@H]1c1nc2cc(F)c([C@H]3CC[C@H](c4cc5nc([C@@H]6CCCN6C(=O)[C@@H](NC(=O)OC)[C@@H](C)OC)n(COC(=O)Cc6ccc(OP(=O)(O)O)cc6)c5cc4F)N3c3cc(F)c(N4CCC(c5ccc(F)cc5)CC4)c(F)c3)cc2[nH]1)[C@@H](C)OC", 74),
]
